target: NHE1 (Homo sapiens, UniProt P19634); test: NHE inhibition FLIPR test (intracellular pH recovery, BCECF) in transfected LAP-1 cells; conditions: transfected cell line (parental LAP-1) expressing the NHE-1 subtype, pHi recovery after acidification
Sequence (P19634 whole entry, species assumed): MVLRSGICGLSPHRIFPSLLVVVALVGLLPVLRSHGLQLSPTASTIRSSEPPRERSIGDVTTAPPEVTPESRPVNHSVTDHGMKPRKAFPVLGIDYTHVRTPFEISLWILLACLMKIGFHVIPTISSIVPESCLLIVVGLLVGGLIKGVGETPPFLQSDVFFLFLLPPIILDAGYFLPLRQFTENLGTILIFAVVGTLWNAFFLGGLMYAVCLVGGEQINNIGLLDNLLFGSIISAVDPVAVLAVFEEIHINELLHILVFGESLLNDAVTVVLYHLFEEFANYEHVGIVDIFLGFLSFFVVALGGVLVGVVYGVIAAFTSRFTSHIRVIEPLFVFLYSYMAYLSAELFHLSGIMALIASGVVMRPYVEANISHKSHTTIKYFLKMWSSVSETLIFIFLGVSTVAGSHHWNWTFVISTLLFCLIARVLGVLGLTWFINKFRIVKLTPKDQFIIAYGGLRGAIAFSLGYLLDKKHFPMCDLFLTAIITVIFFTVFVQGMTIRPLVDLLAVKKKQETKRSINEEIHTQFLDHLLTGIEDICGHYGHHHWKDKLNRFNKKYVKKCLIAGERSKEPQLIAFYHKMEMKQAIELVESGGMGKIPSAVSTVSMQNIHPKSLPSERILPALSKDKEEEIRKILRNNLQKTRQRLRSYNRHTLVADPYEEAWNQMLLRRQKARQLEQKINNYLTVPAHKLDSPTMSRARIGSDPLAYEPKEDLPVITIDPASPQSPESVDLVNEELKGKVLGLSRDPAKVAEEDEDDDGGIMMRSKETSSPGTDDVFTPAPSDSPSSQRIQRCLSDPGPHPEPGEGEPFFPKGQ
pIC50: −log10 of the molar value.
RECORDED_ENDPOINT: pIC50

MOLECULE	RECORDED_ENDPOINT	MEASURED_RESULT
CC(C)CN1C(=O)c2c(F)ccc(F)c2C1CC(=O)N=C(N)N (stereo not shown) [Example 19]	pIC50	7.96

(I) [H]/N=C(\N)NC(=O)CC1c2cc(S(C)(=O)=O)ccc2C(=O)N1CC1CC1 (stereo not shown) [Example 37, acetate]
(II) NC(N)=NC(=O)CC1c2ccc(Cl)cc2C(=O)N1CCCC(F)(F)F (single isomer, unassigned) [Example 54b]
Q: // max by pIC50 over [ I , II ] Give the chosen item's label as your response.
Ans: II
